- Test system: viable cells in culture
- Test details: Cell viability assay at 10 μM (CellTiter-Glo, Table VII);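 further: graded A 0-20%; B 21-40%; C 41-60%; D over 60% viable cells relative to DMSO control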
- Type: cell-based
- Condition notes: RKO; compound 10 μM; 72 h; read-out: percentage (%) of viable cells RKO
viability at 10 µM for assorted compounds
Metric: viability at 10 µM

1. COc1cc2c(Oc3ccc(NS(=O)(=O)c4cccc(Oc5ccccc5)c4)cc3F)ccnc2cc1OCCCN1CCCCC1 [Example 10]; 0 to 20%
2. COc1cc2c(Oc3ccc(NS(=O)(=O)c4ccc(Cl)cc4F)cc3F)ccnc2cc1OCCCN1CCN(C)CC1 [Example 27]; 0 to 20%
3. COc1cc2c(Oc3ccc(NS(=O)(=O)c4ccccc4C(F)(F)F)cc3F)ccnc2cc1OCCCN(C)C [Example 100]; 0 to 20%

###

Measured viability at 10 µM accompanies every entry in the list below.
- Test system: viable cells in culture
- Test details: Cell viability assay at 10 μM (CellTiter-Glo, Table VII);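 further: graded A 0-20%; B 21-40%; C 41-60%; D over 60% viable cells relative to DMSO control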
- Assay type: cell-based
- Condition notes: RKO; compound 10 μM; 72 h; read-out: percentage (%) of viable cells RKO
Metric: viability at 10 µM

1. COc1cc2c(Oc3ccc(NS(=O)(=O)c4ccccc4C(F)(F)F)cc3F)ccnc2cc1OCCCN1CCCCC1C (stereo not drawn); 21 to 40%
2. COc1cc2c(Oc3ccc(NS(=O)(=O)c4cccc(Oc5ccccc5)c4)cc3F)ccnc2cc1OCCCN1CCN(C)CC1; 0 to 20%
3. COc1cc2c(Oc3ccc(NS(=O)(=O)c4ccc(C)c(F)c4)cc3F)ccnc2cc1OCCCN1CCCC(C)C1 (stereo not drawn); 21 to 40%
4. COc1cc2c(Oc3ccc(NS(=O)(=O)c4cc(Cl)ccc4Cl)cc3F)ccnc2cc1OCCCN1CCN(C)CC1; 0 to 20%
5. COc1cc2c(Oc3ccc(NS(=O)(=O)c4ccccc4F)cc3F)ccnc2cc1OCCN1CCOCC1; 41 to 60%
6. COc1cc2c(Oc3ccc(NS(=O)(=O)c4c(Cl)cccc4Cl)cc3F)ccnc2cc1OCCCN1CCN(C)CC1; 21 to 40%
7. COc1cc2c(Oc3ccc(NS(=O)(=O)c4cccc(F)c4)cc3F)ccnc2cc1OCCCN1CCN(C)CC1; 21 to 40%
8. COc1cc2c(Oc3ccc(NS(=O)(=O)c4cc(Cl)cc(Cl)c4OC)cc3F)ccnc2cc1OCCCN1CCCCC1; 0 to 20%
9. COc1cc2c(Oc3ccc(NS(=O)(=O)c4cc(C)ccc4F)cc3F)ccnc2cc1OCCCN1CCCC(C)C1 (stereo not drawn); 41 to 60%
10. CN1CCN(CCCOc2ccc3nccc(Oc4ccc(NS(=O)(=O)c5ccccc5C(F)(F)F)cc4F)c3c2)CC1; 0 to 20%
11. COc1cc2c(Oc3ccc(NS(=O)(=O)c4ccc(F)c(Cl)c4)cc3F)ccnc2cc1OCCCN1CCCC(C)C1 (stereo not drawn); 0 to 20%
12. COc1cc2nccc(Oc3ccc(NS(=O)(=O)c4ccccc4C(F)(F)F)cc3F)c2cc1OCCCN1CCN(C)CC1; 21 to 40%
13. COc1cc2c(Oc3ccc(NS(=O)(=O)c4ccccc4C(F)(F)F)cc3F)ccnc2cc1OCC(=O)N(C)C; 0 to 20%
14. COc1cc2c(Oc3ccc(NS(=O)(=O)c4ccccc4[N+](=O)[O-])cc3F)ccnc2cc1OCCCN1CCCCC1; 0 to 20%
15. COc1cc2c(Oc3ccc(NS(=O)(=O)c4ccc(F)c(C#N)c4)cc3F)ccnc2cc1OCCCN1CCCC(C)C1 (stereo not drawn); 0 to 20%

###

Listed below: IC50 values for each entry.
- Test system: SF126
- Test details: Cell vitality assay (ATP assay, CellTiter-Glo)
- Type: cell-based
- Condition notes: Homo sapiens, SF-126; SF126, 72 h; Table IIa; read-out: IC50 ATP-Assay after 72 h SF126
Metric: IC50

1. COC(=O)c1sccc1S(=O)(=O)Nc1ccc(Oc2ccnc3cc(OCCCN4CCN(C)CC4)c(OC)cc23)c(F)c1; ≤ 12.5 µM
2. COc1cc2c(Oc3ccc(NS(=O)(=O)c4ccccc4OC(F)(F)F)cc3F)ccnc2cc1OCCCN1CCCCC1; ≤ 12.5 µM
3. COc1cc2c(Oc3ccc(NS(=O)(=O)c4cc(F)ccc4F)cc3F)ccnc2cc1OCCCN1CCCCC1; ≤ 12.5 µM
4. COc1cc2c(Oc3ccc(NS(=O)(=O)c4c(Cl)cccc4Cl)cc3F)ccnc2cc1OCCCN1CCN(C)CC1; ≤ 12.5 µM

###

# melting point per record follows
Metric: melting point

1. COc1cc2c(Oc3ccc(NS(=O)(=O)c4cc(F)ccc4F)cc3F)ccnc2cc1OCCCCOC(C)=O; 165 to 167 °C
2. COc1ccc2nccc(Oc3ccc(NS(=O)(=O)c4c(Cl)cccc4Cl)cc3F)c2c1; 219 to 221 °C
3. COc1cc2c(Oc3ccc(NS(=O)(=O)c4c(F)cccc4F)cc3F)ccnc2cc1OCCCN1CCCCC1; 242 to 244 °C
4. COc1cc2c(Oc3ccc(NS(=O)(=O)c4ccn(C)n4)cc3F)ccnc2cc1OCCCN1CCC(C)CC1; 165 to 166 °C
5. COc1cc2c(Oc3cc(NS(=O)(=O)c4c(F)cccc4F)ccc3F)ccnc2cc1OCCCN1CCC(C)CC1; 185 to 186 °C
6. COc1cc2c(Oc3ccc(NS(=O)(=O)c4ccccc4Cl)cc3F)ccnc2cc1OCCN1CCOCC1; 180 to 181 °C
7. COc1cc2c(Oc3ccc(NS(=O)(=O)c4ccc(C)c(F)c4)cc3F)ccnc2cc1OCCCN1CCCC(C)C1 (stereo not shown); 174 to 176 °C

###

- Tested on: A172
- Test details: Cell vitality assay (ATP assay, CellTiter-Glo)
- Assay type: cell-based
- Condition notes: Homo sapiens, A 172; A172, 72 h; Table IIa; read-out: IC50 ATP-Assay after 72 h A172
In this section, each of the compounds is paired with its reported IC50.
Metric: IC50

1. COc1cc2c(Oc3ccc(NS(=O)(=O)c4c(Cl)cccc4Cl)cc3Cl)ccnc2cc1OCCCN1CCN(C)CC1 [Example 119]; ≤ 12.5 µM
2. COC(=O)c1sccc1S(=O)(=O)Nc1ccc(Oc2ccnc3cc(OCCCN(C)C)c(OC)cc23)c(F)c1 [Example 184]; ≤ 12.5 µM
3. COc1cc2c(Oc3ccc(NS(=O)(=O)c4ccccc4C(F)(F)F)cc3F)ccnc2cc1OCCCN(C)C [Example 100]; ≤ 12.5 µM
4. COc1cc2c(Oc3ccc(NS(=O)(=O)c4c(F)cccc4F)cc3F)ccnc2cc1OCCCN1CCCCC1 [Example 11]; 12.5 to 50 µM
5. COc1cc2c(Oc3ccc(NS(=O)(=O)c4ccccc4OC(F)(F)F)cc3F)ccnc2cc1OCCCN1CCCCC1 [Example 78]; ≤ 12.5 µM
6. COc1cc2c(Oc3ccc(NS(=O)(=O)c4cc(F)ccc4F)cc3F)ccnc2cc1OCCCN(C)C [Example 177]; ≤ 12.5 µM
7. COc1cc2c(Oc3ccc(NS(=O)(=O)c4c(F)cccc4F)cc3F)ccnc2cc1OCCCN(C)C [Example 178]; ≤ 12.5 µM
8. COc1cc2c(Oc3ccc(NS(=O)(=O)c4cccc(-c5ccccc5)c4)cc3F)ccnc2cc1OCCCN1CCCCC1 [Example 8]; ≤ 12.5 µM
9. COc1cc2c(Oc3ccc(NS(=O)(=O)c4ccccc4OC(F)(F)F)cc3F)ccnc2cc1OCCCN1CCCC(C)C1 (stereo not drawn) [Example 45]; ≤ 12.5 µM
10. COc1cc2c(Oc3ccc(NS(=O)(=O)c4cc(F)ccc4F)cc3F)ccnc2cc1OCCCN1CCN(C)CC1 [Example 12]; ≤ 12.5 µM
11. COc1cc2c(Oc3ccc(NS(=O)(=O)c4ccccc4[N+](=O)[O-])cc3F)ccnc2cc1OCCCN1CCCCC1 [Example 7]; 12.5 to 50 µM
12. COc1cc2c(Oc3ccc(NS(=O)(=O)c4c(F)cccc4F)cc3F)ccnc2cc1OCCCN1CCOCC1 [Example 77]; ≤ 12.5 µM
13. COc1cc2c(Oc3ccc(NS(=O)(=O)c4ccccc4C(F)(F)F)cc3F)ccnc2cc1OCCCN1CCCCC1C (stereo not drawn) [Example 99]; ≤ 12.5 µM
14. COC(=O)c1sccc1S(=O)(=O)Nc1ccc(Oc2ccnc3cc(OCCCN4CCC(C)CC4)c(OC)cc23)c(F)c1 [Example 156]; ≤ 12.5 µM
15. COc1cc2c(Oc3ccc(NS(=O)(=O)c4ccccc4[N+](=O)[O-])cc3F)ccnc2cc1OCCCN1CCCC(C)C1 (stereo not drawn) [Example 40]; ≤ 12.5 µM

###

# key: entry, value: IC50
- System: Hs578T
- Test details: Matrigel outgrowth assay/branching assay
- Type: cell-based
- Condition notes: Homo sapiens, Hs-578T; HS578T cell line; Table Ib; read-out: Total branching inhibition in Matrigel HS578T
Metric: IC50

1. COc1cc2c(Oc3ccc(NS(=O)(=O)c4c(F)cccc4F)cc3F)ccnc2cc1OCCN1CCOCC1; ≤ 10 µM
2. COc1ccc2nccc(Oc3ccc(NS(=O)(=O)c4cc(Cl)ccc4Cl)cc3F)c2c1; 10 to 25 µM
3. COc1cc2c(Oc3ccc(NS(=O)(=O)c4ccccc4Cl)cc3F)ccnc2cc1OCCN1CCOCC1; 10 to 25 µM
4. COc1cc2c(Oc3ccc(NS(=O)(=O)c4cc(F)ccc4F)cc3F)ccnc2cc1OCCCN(C)C; ≤ 10 µM
5. COc1cc2c(Oc3ccc(NS(=O)(=O)c4ccc(F)c(F)c4)cc3F)ccnc2cc1OCCCN1CCCC(C)C1 (stereo not shown); 10 to 25 µM
6. COc1cc2c(Oc3ccc(NS(=O)(=O)c4c(F)cccc4F)cc3F)ccnc2cc1OCCCN(C)C; ≤ 10 µM
7. COc1cc2c(Oc3ccc(NS(=O)(=O)c4ccc(F)cc4F)cc3F)ccnc2cc1OCCCN1CCCC(C)C1 (stereo not shown); ≤ 10 µM
